Origin of the recorded values: patent US5464829A

# Tested on: E. cloacae G-0008
Catalogue of MIC readings, one per entry.
Kindly answer with a numeric value in µg/mL, unit omitted.

Reference set, count: 3
C[n+]1ccc2sc(SCC3=C(C(=O)[O-])N4C(=O)C(NC(=O)/C(=N\OC(C)(C)C(=O)O)c5csc(N)n5)C4SC3)nc2c1 (centres unmarked) [D]	0.2
CO/N=C(\C(=O)NC1C(=O)N2C(C(=O)[O-])=C(CSc3nc4c(ccc[n+]4C)s3)CSC12)c1csc(N)n1 (centres unmarked) [B]	0.2
C[n+]1ccc2sc(SCC3=C(C(=O)[O-])N4C(=O)C(NC(=O)/C(=N\OCC(=O)O)c5csc(N)n5)C4SC3)nc2c1 (centres unmarked) [C]	0.05

Name the recorded MIC of C[C@H](O/N=C(\C(=O)NC1C(=O)N2C(C(=O)[O-])=C(CSc3nc4c[n+](C)ccc4s3)CSC12)c1csc(N)n1)C(=O)O (some centres unmarked) [E] , assay system E. cloacae G-0008.
0.2

Name the recorded MIC of CO/N=C(\C(=O)NC1C(=O)N2C(C(=O)[O-])=C(CSc3nc4c[n+](C)ccc4s3)CSC12)c1csc(N)n1 (centres unmarked) [A] , assay system E. cloacae G-0008.
0.05
